FYI, the data here is from patent US20040102325A1.

# Test system: Chenopodium
# ASSAY_NAME: Post-emergence herbicidal action, Chenopodium
# Format: in vivo
# Parameters: key: 1=total damage; 9=no action
# REPORTED_CONDITIONS: post-emergence (2- to 3-leaf stage), 1000 g a.i/ha, 2 to 3 weeks, scale of nine ratings (1=total damage, 9=no action)
QUANTITY_MEASURED: Chenopodium, herbicidal action rating
Respond numerically, and do not add a unit to the figure.

Study these solved cases before continuing.
N#CCc1cccc(C#CCOc2ccc(Cl)cn2)c1 | 1
COc1cc(Br)cnc1OCC#Cc1cccc(CC#N)c1 | 1
Cc1ccc(OC(F)F)c(OCC#Cc2cccc(CC#N)c2)n1 | 1
COc1cc(Cl)cnc1OCC#Cc1cccc(CC#N)c1 | 1
CSc1cccnc1OCC#Cc1cccc(CC#N)c1 | 1
COc1cc(F)cnc1OCC#Cc1cccc(CC#N)c1 | 1
N#CCc1cccc(C#CCOc2ncc(Cl)cc2F)c1 | 1
N#CCc1cccc(C#CCOc2ncc(Cl)cc2OC(F)F)c1 | 7
COc1cc(C)cnc1OCC#Cc1cccc(CC#N)c1 | 3
COc1cc(Cl)cnc1OCC#Cc1ccccc1 | 3

[Q] Fill in the blank: the reported Chenopodium, herbicidal action rating of "N#CCc1cccc(C#CCOc2ccc(Br)cn2)c1" is ____.
[A] 1

[Q] Sample "N#CCc1cccc(C#CCOc2ncc(F)cc2F)c1" — what was its Chenopodium, herbicidal action rating?
[A] 1

* * *

# Test system: Sida
# ASSAY_NAME: Post-emergence herbicidal action, Sida
# Assay type: in vivo
# REPORTED_CONDITIONS: post-emergence (2- to 3-leaf stage), 1000 g a.i/ha, 2 to 3 weeks, scale of nine ratings (1=total damage, 9=no action)
QUANTITY_MEASURED: Sida, herbicidal action rating
Simply state the number, no unit and no words.

# annotated cases, reported Sida, herbicidal action rating shown
COc1cc(Cl)cnc1OCC#Cc1cccc(CC#N)c1 | 2
COc1cc(Br)cnc1OCC#Cc1cccc(CC#N)c1 | 2

[Q] Entry under review: "N#CCc1cccc(C#CCOc2ncc(F)cc2F)c1" . Reported Sida, herbicidal action rating?
[A] 2

[Q] I would be grateful if you could share the reported Sida, herbicidal action rating for "Cc1ccc(OC(F)F)c(OCC#Cc2cccc(CC#N)c2)n1" .
[A] 2

[Q] Quick one: Sida, herbicidal action rating of "N#CCc1cccc(C#CCOc2ccc(Br)cn2)c1" ?
[A] 3

[Q] I would be grateful if you could share the reported Sida, herbicidal action rating for "CSc1cccnc1OCC#Cc1cccc(CC#N)c1" .
[A] 3

[Q] What Sida, herbicidal action rating value was documented for this compound, "N#CCc1cccc(C#CCOc2ccc(Cl)cn2)c1" ?
[A] 4

* * *

# Tested on: Amaranthus
# ASSAY_NAME: Post-emergence herbicidal action, Amaranthus
# Assay type: in vivo
# REPORTED_CONDITIONS: post-emergence (2- to 3-leaf stage), 1000 g a.i/ha, 2 to 3 weeks, scale of nine ratings (1=total damage, 9=no action)
QUANTITY_MEASURED: Amaranthus, herbicidal action rating
Number only, no unit.

Consider the reported Amaranthus, herbicidal action rating for these compounds:
COc1cc(Br)cnc1OCC#Cc1cccc(CC#N)c1 | 2
N#CCc1cccc(C#CCOc2ncc(Cl)cc2F)c1 | 2

Shifting focus to the compound that follows.
[Q] Name the reported Amaranthus, herbicidal action rating value associated with the compound "N#CCc1cccc(C#CCOc2ccc(Br)cn2)c1"
[A] 1

* * *

# System: Sida
# ASSAY_NAME: Post-emergence herbicidal action, Sida
# Assay type: in vivo
# REPORTED_CONDITIONS: post-emergence (2- to 3-leaf stage), 1000 g a.i/ha, 2 to 3 weeks, scale of nine ratings (1=total damage, 9=no action)
QUANTITY_MEASURED: Sida, herbicidal action rating
Returns: the value as a bare number; no unit string appended.

Known Sida, herbicidal action rating results, listed for orientation:
COc1cc(C)cnc1OCC#Cc1cccc(CC#N)c1 [1.022] | 3
N#CCc1cccc(C#CCOc2ncc(Cl)cc2F)c1 [1.011] | 2
COc1cc(Cl)cnc1OCC#Cc1ccccc1 [1.094] | 2
N#CCc1cccc(C#CCOc2ncc(Cl)cc2OC(F)F)c1 [1.025] | 3

Now take the following compound into account.
[Q] So what does the record say about Sida, herbicidal action rating for COc1cc(F)cnc1OCC#Cc1cccc(CC#N)c1 [1.015] ?
[A] 3

* * *

# System: Amaranthus
# ASSAY_NAME: Post-emergence herbicidal action, Amaranthus
# Assay type: in vivo
# Parameters: key: 1=total damage; 9=no action
# REPORTED_CONDITIONS: post-emergence (2- to 3-leaf stage), 1000 g a.i/ha, 2 to 3 weeks, scale of nine ratings (1=total damage, 9=no action)
The molecules listed here are annotated with their Amaranthus, herbicidal action rating.
Write the number on its own, no unit after it.

[Q] Please give the measured Amaranthus, herbicidal action rating for this molecule: N#CCc1cccc(C#CCOc2ncc(F)cc2F)c1 [1.009]
[A] 1

* * *

# Tested on: Amaranthus
# ASSAY_NAME: Post-emergence herbicidal action, Amaranthus
# Assay type: in vivo
# REPORTED_CONDITIONS: post-emergence (2- to 3-leaf stage), 1000 g a.i/ha, 2 to 3 weeks, scale of nine ratings (1=total damage, 9=no action)
# Description: Monocotyledonous and dicotyledonous test plants are sown in standard soil in pots, and at the 2- to 3-leaf stage are sprayed with an aqueous suspension of the test compounds (prepared from a wettable powder (Example F3, b) according to WO 97/34485) or with an emulsion of the test compounds (prepared from an emulsifiable concentrate (Example F1, c) according to WO 97/34485) at an optimum rate of application of 500 litres of water/ha). […]
QUANTITY_MEASURED: Amaranthus, herbicidal action rating
// return a plain number; no unit text

N#CCc1cccc(C#CCOc2ncc(Cl)cc2OC(F)F)c1 | 2

[Q] Item under review: "COc1cc(Cl)cnc1OCC#Cc1ccccc1" . Reported Amaranthus, herbicidal action rating?
[A] 1

[Q] Fill blank: measured Amaranthus, herbicidal action rating of the molecule "COc1cc(C)cnc1OCC#Cc1cccc(CC#N)c1" is ____.
[A] 3
